Data credit: patent US11045457B2

- Study System: SSTR1 (Homo sapiens (Human), UniProt P30872)
- Sequence (P30872 whole entry): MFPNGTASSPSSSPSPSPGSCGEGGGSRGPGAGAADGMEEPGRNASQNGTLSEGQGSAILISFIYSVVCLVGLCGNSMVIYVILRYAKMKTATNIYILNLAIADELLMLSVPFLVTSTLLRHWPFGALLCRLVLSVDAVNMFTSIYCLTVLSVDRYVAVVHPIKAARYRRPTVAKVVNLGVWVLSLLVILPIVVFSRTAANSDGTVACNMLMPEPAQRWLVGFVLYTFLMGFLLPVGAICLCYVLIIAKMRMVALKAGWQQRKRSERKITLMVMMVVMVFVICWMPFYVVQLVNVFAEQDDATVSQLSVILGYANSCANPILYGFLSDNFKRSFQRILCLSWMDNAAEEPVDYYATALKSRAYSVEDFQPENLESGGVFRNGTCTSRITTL
- Assay Name: SSTR1 I-125 somatostatin competition binding assay for selectivity versus SSTR4 (membranes from CHO-K1 cells overexpressing SSTR1);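 further: Filter-based radioligand binding, bound label counted by scintillation after 60 min incubation at room temperature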
- Study Conditions: competition with I-125 labeled somatostatin, CHO-K1 SSTR1 membranes
Rule: measured SSTR1 Binding pIC50 below 5 gets T; anything equal to or greater than 5 gets F.

Is 5 strictly greater than the compound's reported SSTR1 Binding pIC50? compound: C[C@@H]1C[C@H](NC(=O)C(C)(C)COc2ncccc2OC(F)(F)F)CCN1C [Example 179]
T

And then CN1CCC(NC(=O)C(C)(C)COc2ncccc2OC(F)(F)F)CC1 [Example 92] , what is it?
T

And then CN1CCC(NC(=O)C(C)(C)COc2ncccc2C(F)(F)F)CC1 [Example 41] , what is it?
T

And then C[C@@H]1C[C@H](NC(=O)C(F)(F)COc2ncccc2C2CC2)CCN1C [Example 194] , what is it?
T

And then C[C@H]1C[C@@H](NC(=O)C(C)(C)COc2ncccc2OC(F)(F)F)CCN1C (relative stereo) [Example 136] , what is it?
T

And then Cc1ccccc1[C@@H]1CN(C)CC[C@H]1NC(=O)C(C)(C)COc1ncccc1C(F)(F)F (relative stereo) [Example 161] , what is it?
F

And then CN1C[C@@H](NC(=O)C(C)(C)COc2ncccc2C(F)(F)F)[C@H](c2cnn(C)c2)C1 (relative stereo) [Example 19] , what is it?
F
